test: Water Vapour Sorption isotherm (DVS), hygroscopicity acc. to Ph. Eur.; type: physicochemical; conditions: relative humidity range 40-80% rh, isotherm 25° C.
Recorded Endpoint: Water uptake level (Water Vapour Sorption) (wt%)

COc1ccc2nc3cc(Cl)ccc3c(Nc3cc(CN4CCCC4)c(O)c(CN4CCCC4)c3)c2n1 [Form V] :: 0.6

(a) COc1ccc2nc3cc(Cl)ccc3c(Nc3cc(CN4CCCC4)c(O)c(CN4CCCC4)c3)c2n1 [Form I]
(b) COc1ccc2nc3cc(Cl)ccc3c(Nc3cc(CN4CCCC4)c(O)c(CN4CCCC4)c3)c2n1 [Form IV]
(c) COc1ccc2nc3cc(Cl)ccc3c(Nc3cc(CN4CCCC4)c(O)c(CN4CCCC4)c3)c2n1 [Form III]
Prompt: Your job: order these 3 records by Water uptake level (Water Vapour Sorption), ascending. Form field (ranking): labels in requested order.
Completion: b, c, a

This collection of values is drawn from patent US20230295156A1.
